Provide the reported pIC50 of each item.
STUDY SYSTEM: UniProt:O39930
Recall that pIC50 is obtained by taking minus log10 of the concentration measured in molar.

The value of pIC50 recorded for Cc1ncc(COc2ccc(-c3nc4cc(C(=O)O)ccc4n3C3CCCCC3)c(F)c2)c(-c2ccc(Cl)cc2)n1 when tested on UniProt:O39930 reads 6.73

The reported pIC50 value, UniProt:O39930, for O=C(O)c1ccc2c(c1)nc(-c1ccc(OCc3cc(N4CCCC4=O)ccc3-c3ccc(Cl)cc3)cc1F)n2C1CCCCC1 reads 7.92

Entry CC(=O)NC(=O)c1ccc(-c2ccc(Cl)cc2)c(COc2ccc(-c3nc4cc(C(=O)O)ccc4n3C3CCCCC3)c(F)c2)c1 , UniProt:O39930 data, pIC50 value: 7.85

Tested on UniProt:O39930, the item NC(=O)c1ccc(-c2ccc(Cl)cc2)c(COc2ccc(-c3nc4cc(C(=O)O)ccc4n3C3CCCCC3)c(F)c2)c1 showed pIC50 equal to 7.89
